- protocol_details: Cytotoxicity against human HeLa cells after 48 hrs
- Assay type: cell-based
reported_metric: CC50 at 48 h (µM)
Return type: number; implicit unit µM.

Query: Tell me its CC50 at 48 h given N=C(N)NCCCCCCCCNCCCCCCCCNC(=N)NCC1CC1.O=C(O)C(F)(F)F.O=C(O)C(F)(F)F.O=C(O)C(F)(F)F as the entry.
Response: 62

---

- System: Klebsiella pneumoniae
- protocol_details: Antibacterial activity against Klebsiella pneumoniae ATCC 13833 after 16 to 18 hrs by microbroth dilution method
- Assay type: functional
reported_metric: MIC

Solved cases below.
N=C(N)NCCCCCCNCCCCCCNC(=N)NCC1CC1.O=C(O)C(F)(F)F.O=C(O)C(F)(F)F.O=C(O)C(F)(F)F 256 µg/mL
C/C=C/CNC(=N)NCCCCCCCCN1CCCCCCCCNC(=N)NC1=O.O=C(O)C(F)(F)F.O=C(O)C(F)(F)F 32 µg/mL
C#CCNC(=N)NCCCCCCCCNCCCCCCCCNC(=N)N.O=C(O)C(F)(F)F.O=C(O)C(F)(F)F.O=C(O)C(F)(F)F 32 µg/mL

Now take the following molecule into account.
Query: Tell me its MIC given N=C(NCCCCCCCCNCCCCCCCCNC(=N)NCC1CC1)NCC1CC1.O=C(O)C(F)(F)F.O=C(O)C(F)(F)F.O=C(O)C(F)(F)F as the entry.
Response: > 256 µg/mL

---

- protocol_details: Solubility of the compound in pure water at 1.2 mg after 24 to 36 hrs by LC-MS/MS analysis
- Format: physicochemical
reported_metric: solubility (µg/mL)
Return type: number; implicit unit µg/mL.

Query: Tell me its solubility given N=C(N)NCCCCCCCCNCCCCCCCCNC(=N)NCC1CC1.O=C(O)C(F)(F)F.O=C(O)C(F)(F)F.O=C(O)C(F)(F)F as the entry.
Response: 966

---

- Tested on: Klebsiella pneumoniae
- protocol_details: Antibacterial activity against Klebsiella pneumoniae ATCC 13833 after 16 to 18 hrs by microbroth dilution method
- Format: functional
reported_metric: MIC (µg/mL)
Return type: number; implicit unit µg/mL.

Solved cases below.
N=C(N)NCCCCCCCCNCCCCCCCCNC(=N)NCC1CC1.O=C(O)C(F)(F)F.O=C(O)C(F)(F)F.O=C(O)C(F)(F)F 1
N=C(NCCCCCCCCN1CCCCCCCCNC(=N)NC1=O)NCC1CC1.O=C(O)C(F)(F)F.O=C(O)C(F)(F)F 128
N=C(N)NCCCCCCCCNCCCCCCCCNC(=N)NCc1ccccc1.O=C(O)C(F)(F)F.O=C(O)C(F)(F)F.O=C(O)C(F)(F)F 16

Query: Tell me its MIC given C=C(C)CNC(=N)NCCCCCCCCNCCCCCCCCNC(=N)N.O=C(O)C(F)(F)F.O=C(O)C(F)(F)F.O=C(O)C(F)(F)F as the entry.
Response: 256

Query: Tell me its MIC given N=C(NCCCCCCCCN1CCCCCCCCNC(=N)NC1=O)NCC1CCC1.O=C(O)C(F)(F)F.O=C(O)C(F)(F)F as the entry.
Response: 32

---

Catalogue of compounds with associated MIC
- Tested on: Streptococcus pyogenes
- protocol_details: Antibacterial activity against Streptococcus pyogenes ATCC 12344 after 16 to 18 hrs by microbroth dilution method
- Type: functional
Return type: number; implicit unit µg/mL.

C#CCNC(=N)NCCCCCCN1CCCCCCCCNC(=N)NC1=O.O=C(O)C(F)(F)F.O=C(O)C(F)(F)F 16

Query: Tell me its MIC given N=C(N)NCCCCCCCCNCCCCCCCCNC(=N)NCc1ccccc1.O=C(O)C(F)(F)F.O=C(O)C(F)(F)F.O=C(O)C(F)(F)F as the entry.
Response: 1

Query: Tell me its MIC given C#CCNC(=N)NCCCCCCCCNCCCCCCCCNC(=N)N.O=C(O)C(F)(F)F.O=C(O)C(F)(F)F.O=C(O)C(F)(F)F as the entry.
Response: 2

---

- protocol_details: Apparent permeability of the compound at pH 10.0 after 5 hrs by PAMPA
- Type: physicochemical
Catalogue of molecules with associated Papp at 5 h
Return type: number; implicit unit ×10⁻⁶ cm/s.

Solved cases below.
O=C(N[C@H](CO)[C@H](O)c1ccc([N+](=O)[O-])cc1)C(Cl)Cl 0.057
N=C(N)NCCCCCCCCNCCCCCCCCNC(=N)NCC1CC1.O=C(O)C(F)(F)F.O=C(O)C(F)(F)F.O=C(O)C(F)(F)F 16.7

Now take the following molecule into account.
Query: Tell me its Papp at 5 h given CO[C@H]1/C=C/O[C@@]2(C)Oc3c(C)c(O)c4c(O)c(c5c(nc6cc(C)ccn65)c4c3C2=O)NC(=O)/C(C)=C\C=C\[C@H](C)[C@H](O)[C@@H](C)[C@@H](O)[C@@H](C)[C@H](OC(C)=O)[C@@H]1C as the entry.
Response: 0.012

---

- protocol_details: Metabolic stability in human liver microsomes after 60 mins by LC-UV-MS analysis
- Format: ADME
- test_parameters: read-out: Stability
reported_metric: remaining at 1 h

Query: Tell me its remaining at 1 h given N=C(N)NCCCCCCCCNCCCCCCCCNC(=N)NCC1CC1.O=C(O)C(F)(F)F.O=C(O)C(F)(F)F.O=C(O)C(F)(F)F as the entry.
Response: > 99%

---

- Tested on: Klebsiella pneumoniae
- protocol_details: Antibacterial activity against Klebsiella pneumoniae ATCC 13833 after 16 to 18 hrs by microbroth dilution method
- Type: functional
Catalogue of compounds with associated MIC
Return type: number; implicit unit µg/mL.

Solved cases below.
C=C(C)CNC(=N)NCCCCCCCCN1CCCCCCCCNC(=N)NC1=O.O=C(O)C(F)(F)F.O=C(O)C(F)(F)F 1
C#CCNC(=N)N(C)CCCCCCCCNCCCCCCCCNC(=N)N.O=C(O)C(F)(F)F.O=C(O)C(F)(F)F.O=C(O)C(F)(F)F 16
C=CCNC(=N)NCCCCCCCCN1CCCCCCCCNC(=N)NC1=O.O=C(O)C(F)(F)F.O=C(O)C(F)(F)F 128
CN(CCCCCCCCNCCCCCCCCNC(=N)N)C(=N)NCc1ccccc1.O=C(O)C(F)(F)F.O=C(O)C(F)(F)F.O=C(O)C(F)(F)F 32

Now take the following compound into account.
Query: Give reported MIC for CN(CCCCCCCCNCCCCCCCCNC(=N)N)C(=N)NCC1CC1.O=C(O)C(F)(F)F.O=C(O)C(F)(F)F.O=C(O)C(F)(F)F (Klebsiella pneumoniae)
Response: 8

---

- System: Streptococcus pyogenes
- protocol_details: Antibacterial activity against Streptococcus pyogenes ATCC 12344 after 16 to 18 hrs by microbroth dilution method
- Assay type: functional
reported_metric: MIC (µg/mL)
Return type: number; implicit unit µg/mL.

Solved cases below.
C=C(C)CNC(=N)NCCCCCCN1CCCCCCCCNC(=N)NC1=O.O=C(O)C(F)(F)F.O=C(O)C(F)(F)F 8
CC(C)=CCNC(=N)NCCCCCCN1CCCCCCCCNC(=N)NC1=O.O=C(O)C(F)(F)F.O=C(O)C(F)(F)F 8
CN(CCCCCCCCNCCCCCCCCNC(=N)N)C(=N)NCc1ccccc1.O=C(O)C(F)(F)F.O=C(O)C(F)(F)F.O=C(O)C(F)(F)F 16

Query: Tell me its MIC given C/C=C/CNC(=N)NCCCCCCN1CCCCCCCCNC(=N)NC1=O.O=C(O)C(F)(F)F.O=C(O)C(F)(F)F as the entry.
Response: 32

Query: Tell me its MIC given N=C(NCCCCCCCCN1CCCCCCCCNC(=N)NC1=O)NCC1CC1.O=C(O)C(F)(F)F.O=C(O)C(F)(F)F as the entry.
Response: 32

Query: Tell me its MIC given C#CCNC(=N)N(C)CCCCCCCCNCCCCCCCCNC(=N)N.O=C(O)C(F)(F)F.O=C(O)C(F)(F)F.O=C(O)C(F)(F)F as the entry.
Response: 16

---

- Test system: Streptococcus pyogenes
- protocol_details: Antibacterial activity against Streptococcus pyogenes ATCC 12344 after 16 to 18 hrs by microbroth dilution method
- Format: functional
Please use Criterion met for MIC under 2 µg/mL and Criterion not met for everything else, ties included.

A selection of reference data follows.
N=C(N)NCCCCCCCCNCCCCCCCCNC(=N)NCC1CC1.O=C(O)C(F)(F)F.O=C(O)C(F)(F)F.O=C(O)C(F)(F)F Criterion met
CN(CCCCCCCCNCCCCCCCCNC(=N)N)C(=N)NCC1CC1.O=C(O)C(F)(F)F.O=C(O)C(F)(F)F.O=C(O)C(F)(F)F Criterion not met
C=C(C)CNC(=N)NCCCCCCCCNCCCCCCCCNC(=N)N.O=C(O)C(F)(F)F.O=C(O)C(F)(F)F.O=C(O)C(F)(F)F Criterion not met
CCNC(=N)NCCCCCCN1CCCCCCCCNC(=N)NC1=O.O=C(O)C(F)(F)F.O=C(O)C(F)(F)F Criterion not met
N=C(N)NCCCCCCNCCCCCCNC(=N)NCC1CC1.O=C(O)C(F)(F)F.O=C(O)C(F)(F)F.O=C(O)C(F)(F)F Criterion not met

Query: For this compound, is MIC lower than 2 µg/mL? C=C(C)CNC(=N)NCCCCCCCCN1CCCCCCCCNC(=N)NC1=O.O=C(O)C(F)(F)F.O=C(O)C(F)(F)F
Response: Criterion met

Query: For this compound, is MIC lower than 2 µg/mL? C=CCNC(=N)NCCCCCCCCN1CCCCCCCCNC(=N)NC1=O.O=C(O)C(F)(F)F.O=C(O)C(F)(F)F
Response: Criterion not met
